System: Saccharomyces cerevisiae;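 note: PSI is a weighted mean of sequencing reads over stability bins, variants kept only with over 10 reads, mCherry proximal and sfGFP distal, peptide attached via GGGS linker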
PROTOCOL DESCRIPTION: protein stability index of tFT-peptide fusion (C-terminal peptide) (PSI (0-1 scale)); higher = more stable (slower turnover)
REPORTED CONDITIONS: genetic background: wild type; temperature: 30 C
PARAMETER MEASURED: protein stability index

>>> df
    sequence_string  value_observed
 0     NFPEATPSNYKV           0.737
 1     CFGGGVGWFPLG           0.698
 2     GKRYLIKKRKKT           0.698
 3     SVVLIQVVSKPT            0.58
 4     GVRGGGAVGGLR            0.65
 5     VIFCVGRFSGGS           0.645
 6     PPPTPRPAFLPP           0.697
 7     LPVPPPPVSVAN           0.554
 8     SVFFRPVLICCA           0.101
 9     FWVASREVGRAY           0.608
10     PPLPPPTPRPAP           0.754
11     LPMGTRGPAPGP            0.73
12     SSVFPSSPAFLP           0.691
13     VCFFLFWCLSFS           0.454
14     LFLPFLPTLALL           0.231
15     SGWVVECPRECW           0.719
16     CFPPVGPTSPTI           0.745
17     LVGYCGAWACVV             0.4
18     LGFFGGGRGAGG           0.677
19     PPVLSLGPPFTS            0.73
20     PRPPTPPTTILN           0.652
21     PPRPLPARRLSF           0.753
22     CRWHLRIVRGLM           0.377
23     VAALFPPLRFLN           0.286
24     VVLCAALHRTYG           0.638
25     CGTPWHSITCSA            0.55
26     KKKKKKYRKKKK           0.668
27     SRFIDLLFPSSP           0.705
28     VASLSGGQISFG           0.612
29     FLLPPPPRASSF           0.736
30     FKVTWGLFYGSV            0.44
31     CSSSALADLLPW           0.654
32     PPPLTSPPHPPP           0.724
33     GLSGSPIPFIRL           0.731
34     IYNDPYYLIKAR           0.644
35     AGCRCHSKKAAT           0.624
36     LSVVVLVLCVLL           0.353
37     FPPLCSSSPPLP           0.713
38     PTLSSPHPPNNY           0.689
39     VCYGELTISNLE           0.654
40     CRHPYTSTTRLA            0.68
